Here, each record is paired with measured cytotoxicity at 10 µM data.
Test: Toxicity liver stage against HepG2, at 10uM
Format: cell-based
Parameters: test concentration 10 uM, cell line HepG2-A16-CD81EGFP
Settings: human, HepG2-A16-CD81EGFP cells; read-out: INHIBITION
Just the number please, in %, no unit attached.

Study these solved cases before continuing.
{"columns": ["compound", "cytotoxicity at 10 µM / %"],
 "data": [
  ["Cc1cn2nc(N3CCCC3Cn3cncn3)sc2n1 (stereo not drawn)", -18.3],
  ["Cc1nc(N(C)C)nc(NCCc2cnccn2)c1C", -1.22]
]}

Consider the additional compound presented here.
IN: Please indicate cytotoxicity at 10 µM recorded for N#CCc1ccc(OCC(=O)N2CCCC(n3cccn3)C2)cc1 (stereo not drawn)
OUT: -4

Every entry's value here was drawn from ChEMBL document CHEMBL4513216.
